Quick reference for Stability, Mean ± S.D., freeze-thaw cycles, low QC among some compounds
Assay: Stability test of analytes in rat prostate homogenate QC samples
Type: in vitro ADME
Settings: three freeze-thaw cycles, nominal puerarin 0.100, luteolin 0.200, kaempferol 2.000, pinocembrin 2.000, n = 3
Experimental: All of the solutions were stored at 4℃ until analysis. Stability investigation of the four components in the plasma and prostate homogenates was performed by analyzing replicates (n = 3) of the three levels of QC samples under three different conditions. Room temperature stability was assessed after the exposure of untreated QC samples at room temperature for 24 h. Freeze and thaw stability was evaluated after three freeze (−20 °C)–thaw (room temperature) cycles.
// units = μg·mL^−1/μg·g^−1; emit number, no label

In the examples that follow, each entry is paired with its recorded Stability, Mean ± S.D., freeze-thaw cycles, low QC.
O=c1c(O)c(-c2ccc(O)cc2)oc2cc(O)cc(O)c12 [Kaempferol] ... 1.833
O=C1C[C@@H](c2ccccc2)Oc2cc(O)cc(O)c21 [Pinocembrin] ... 1.867
O=c1c(-c2ccc(O)cc2)coc2c([C@@H]3O[C@H](CO)[C@@H](O)[C@H](O)[C@H]3O)c(O)ccc12 [Puerarin] ... 0.100

Please find the next compound below.
Input: For O=c1cc(-c2ccc(O)c(O)c2)oc2cc(O)cc(O)c12 [Luteolin] , what is its reported Stability, Mean ± S.D., freeze-thaw cycles, low QC?
Output: 0.213
